Values were extracted from ChEMBL document CHEMBL1137060.

Molecular target: Adenosylhomocysteinase (Homo sapiens)
Sequence (P23526 2-432 limits assumed): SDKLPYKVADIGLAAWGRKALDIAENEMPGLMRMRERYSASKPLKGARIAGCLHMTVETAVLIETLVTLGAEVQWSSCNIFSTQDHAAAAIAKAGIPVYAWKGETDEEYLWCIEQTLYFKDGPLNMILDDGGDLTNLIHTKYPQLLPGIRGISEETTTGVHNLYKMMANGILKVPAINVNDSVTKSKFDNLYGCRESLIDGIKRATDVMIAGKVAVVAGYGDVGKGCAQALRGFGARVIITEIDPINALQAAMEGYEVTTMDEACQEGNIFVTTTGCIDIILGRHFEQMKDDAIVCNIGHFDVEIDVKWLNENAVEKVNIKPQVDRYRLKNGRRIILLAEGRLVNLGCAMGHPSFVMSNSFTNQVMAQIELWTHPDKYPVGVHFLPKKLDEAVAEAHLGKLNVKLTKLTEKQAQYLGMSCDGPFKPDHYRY
Assay: Inactivation of human placental AdoHcy hydrolase
Readout Label: K inact (min⁻¹)

P = Nc1ncnc2c1ncn2C1O[C@H](CC(=O)OC2CC2(F)F)C(O)[C@H]1O (single isomer, unassigned)
Q = Nc1ncnc2c1ncn2C1O[C@H](CC(=O)OCCF)C(O)[C@H]1O (single isomer, unassigned)
Query: Could you check which of P and Q has a smaller value for K inact? Indicate your choice by writing its label.
Response: P
(P: 0.008 min⁻¹, Q: 0.19 min⁻¹)

a = Nc1ncnc2c1ncn2C1O[C@H](CC(=O)OCCCl)C(O)[C@H]1O (single isomer, unassigned)
b = Nc1ncnc2c1ncn2C1O[C@H](CC(=O)OC2CC2(Cl)Cl)C(O)[C@H]1O (single isomer, unassigned)
Query: Response body: label of entry with the larger K inact; valid values a , b . Indicate your choice by writing its label.
Response: a
